# assay-overview: OD615 S. cerevisiae growth inhibition, permissive medium, pilot counter-assay, permissive growth control for S. cerevisiae lifespan shortening project (AID 705)
# test-settings: OD615, 24 h, at 10 µM, stronger effect = higher value
Readings of growth inhibition for the listed compounds
Give just the numeric value; % need not be written.

Reference set (6 entries):
>>> print(df.to_string())
                                   compound           quantity  reported
0  O=C1CC(c2ccccc2)C(C(=O)O)N1 (configuration not stated)  growth inhibition     -0.84
1  CC1CCN(C(=O)CSc2nc(N)c3c4c(sc3n2)CN(C)CC4)CC1  growth inhibition     -10.2
2  O=C(O)c1cccc(NS(=O)(=O)c2cccc3cccnc23)c1  growth inhibition     -3.04
3  COc1ccc(NC(=O)Nc2nnc(N3CCCCC3C)s2)cc1OC (configuration not stated)  growth inhibition     -5.21
4  CC1CCCC(C)N1c1nnc(N)s1 (configuration not stated)  growth inhibition      0.52
5  CN(Cc1ccco1)C(=O)C(Cc1ccccc1)NS(=O)(=O)c1ccc2c(c1)CCC(=O)N2 (configuration not stated)  growth inhibition     -11.9

growth inhibition reported for this compound CC(C)(CC(=O)O)Cc1nc(-c2ccc(Cl)cc2)no1 : 2.38

growth inhibition reported for this compound Cc1ccc(OCC(=O)Nc2cc(-c3nn4c(C)nnc4s3)ccc2C)cc1 : 0.12

growth inhibition reported for this compound CCCCCC(C)n1[nH]c(=O)c2c(C)cc(C)nc21 (configuration not stated) : -6.7

growth inhibition reported for this compound CCc1ccc(NC(=O)CSc2nnc(Cn3c(=O)sc4ccccc43)n2C)cc1 : -4.66

growth inhibition reported for this compound COc1ccc(-c2nc(N3CCOCC3)nc3n[nH]c(N)c23)cc1 : -5.32

====

# assay-overview: growth suppression of beta-catenin knockout HCT116, pilot screen, human colon tumor cells (AID 823);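 further: 0% = wells killed by 20 µM Hyamine and 100% = untreated DMSO cell wells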
# test-settings: CellTiter-Glo, 60 h, at 10 µM, stronger effect = lower value
Inconclusive results are not listed.
quantity: viability (%)
Give just the numeric value; % need not be written.

viability reported for this molecule CCOC(=O)COc1cc2c(C(=O)OCC)c(C)oc2cc1Br : 89.3

viability reported for this molecule Cn1c(/C(C#N)=C2/CCCCCN2)nc2ccccc21 : 89.6

viability reported for this molecule CC(=O)Nc1ccc(S(=O)(=O)N2CCN(c3cccc(C)c3C)CC2)cc1 : 35.8

viability reported for this molecule COc1cccc(-c2nnc(NC(=O)c3cccc(F)c3)o2)c1 : 15.9

viability reported for this molecule COc1cccc(C(=O)Nc2nnc(-c3cccs3)o2)c1 : 44.8

viability reported for this molecule CCCCCCN1C(=O)C(O)=C(C(C)=O)C1c1ccc(Cl)cc1 (stereo not drawn) : 106

viability reported for this molecule CCN1CCCC1CNC(=O)Cn1cnc2sc(C)c(S(=O)(=O)N3CCC(C)CC3)c2c1=O (stereo not drawn) : 104

viability reported for this molecule Cc1ccc(CNC(=O)CN(C)S(=O)(=O)c2cccc3cccnc23)cc1 : 99.4

viability reported for this molecule O=C(CCCOc1ccccc1)n1nnc2ccccc21 : 98.9

viability reported for this molecule COc1ccc(-n2c(Cc3cc(=O)[nH]c(=O)[nH]3)nnc2SCC(=O)N2CCC(C)CC2)cc1 : 98.2

viability reported for this molecule CCc1cc2c(=O)c(-c3nc4ccccc4n3C)c(C(C)C)oc2c(CN2CCN(C)CC2)c1O : 69.4

viability reported for this molecule COc1ccc(NC(=O)CC2SC(=Nc3ccccc3)NC2=O)c(OC)c1 (stereo not drawn) : 93.4

viability reported for this molecule CCN=C(NCC)SC1CC(=O)N(c2cccc(OC)c2)C1=O (stereo not drawn) : 101

viability reported for this molecule COC(=O)C1=C(N)OC2=C(C(=O)CC(C)(C)C2)C1c1cccnc1 (stereo not drawn) : 95.4

viability reported for this molecule CC(C)OCCCNC(=O)c1ccc(NC(=O)C2CCCO2)cc1 (stereo not drawn) : 99.9

viability reported for this molecule CC(C)NS(=O)(=O)c1ccc(NC(=O)c2cccnc2)cc1 : 112

viability reported for this molecule Cc1ccc2c(CC(=O)Nc3nc(C)cs3)coc2c1 : 76.5

viability reported for this molecule CCSc1oc(-c2ccco2)nc1S(=O)(=O)c1ccc(F)cc1 : 79

====

# assay-overview: OD615 S. cerevisiae growth inhibition, permissive medium, pilot counter-assay, permissive growth control for S. cerevisiae lifespan shortening project (AID 705)
# test-settings: OD615, 24 h, at 10 µM, stronger effect = higher value
Readings of growth inhibition for the listed compounds
Give just the numeric value; % need not be written.

Reference set (10 entries):
                                   compound  measurement_unit  reported
0              COc1ccccc1-n1c(SC)nc(O)cc1=O                 %      1.24
1  CC1=CS/C(=C(/C#N)C(=O)N2CCOCC2)N1c1ccccc1                 %     -2.33
2  CCN(CC)CCN1C(=O)C2C3c4ccccc4C(c4ccccc43)C2C1=O (stereo unspecified)                 %     -2.27
3  CC1(C)CCCC2=C1CC1C(=O)N(Cc3cccnc3)C(=O)C1C2 (stereo unspecified)                 %     -6.32
4      Cc1cc(OCc2ccc(F)cc2)nc(-c2ccccc2O)n1                 %     -0.25
5  CC1(C)CC(=O)C=C(Nc2cc(-c3ccccc3)[nH]n2)C1                 %     -9.89
6  O=C(COC(=O)C1CCCO1)Nc1cccc(C(F)(F)F)c1 (stereo unspecified)                 %     -22.8
7  CC(=O)c1c(C)n(-c2ccc(N(C)C)cc2)c2ccc(OCC(N)=O)cc12                 %     -8.79
8                NC(=O)c1ccsc1NC(=O)c1cccs1                 %        -5
9  Cc1cc(C)n(-c2nnc(C)n2/N=C/c2ccccc2OCc2ccccc2Cl)n1                 %     -4.54

For the next question, use this compound.
growth inhibition reported for this compound O=C(OCN1C(=O)c2ccccc2C1=O)c1ccco1 : -3.8

====

# assay-overview: viability gain of MRP-1-high H69AR cells under doxorubicin, pilot screen, MRP-1 activator project, CellTiter-Glo, duplicate (AID 807);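 further: compound pretreatment 18-22 h then 72 h combined with doxorubicin; 0% = doxorubicin alone and 100% = vehicle without doxorubicin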
# test-settings: H69AR viability with doxorubicin, CellTiter-Glo luminescence; at 10 µM; stronger effect = higher value
Readings of viability increase for the listed compounds
Give just the numeric value; % need not be written.

Reference set (6 entries):
>>> df
                                   compound  measurement_unit  reported
0   Cc1ccc(-c2noc(CSc3nnnn3-c3ccccc3)n2)cc1                 %       2.8
1  Cc1ccc(-c2nc(C3CCCN(S(=O)(=O)c4ccc(C)cc4)C3)no2)cc1 (configuration not stated)                 %      5.21
2               CCCC(=O)NCCCc1nc2ccccc2n1CC                 %      0.81
3       O=C(Nc1nc2cc3c(cc2s1)OCO3)C1=COCCO1                 %     -6.84
4  Cc1cccc(NC(=O)CS(=O)(=O)c2cn(C)c3ccccc23)c1C                 %     -3.27
5  Cc1ccc(-c2nn3c(C)nnc3s2)cc1NC(=O)c1ccco1                 %     -5.34

viability increase reported for this compound COCCN1C=C(C(=O)OC)C(c2cc(Br)c(OC)c(OC)c2)C(C(=O)OC)=C1 : -2.7

viability increase reported for this compound Cc1cc(NC(=O)CSCc2nc(-c3cccc(Cl)c3)oc2C)no1 : 1.25

viability increase reported for this compound CC(=O)c1ccc(OCC(O)CN2CCOCC2)cc1 (configuration not stated) : 0.28

viability increase reported for this compound O=C(CCS(=O)(=O)c1ccccc1)Nc1nccs1 : -8.48

viability increase reported for this compound O=C(Nc1nnc(-c2ccc3c(c2)CCCC3)o1)c1ccccc1Cl : -4.31

viability increase reported for this compound CCCCNC(=O)CS(=O)Cc1nc(-c2cccc(C)c2)oc1C (configuration not stated) : -2.67

====

# assay-overview: reversal of MRP1-mediated doxorubicin resistance, pilot screen, H69AR cells, doxorubicin co-treatment (AID 601)
# test-settings: H69AR cells, CellTiter-Glo, 72 h; compound alone cytotoxicity; at 10 µM
quantity: viability

Reference set (6 entries):
                                   compound   quantity  reported
0    Cc1cc(C)c(OCC(=O)Nc2ccc3c(c2)OCO3)cc1C  viability     84.5%
1  COC(=O)c1ccc(CSc2nc3c(cnn3-c3ccc(C)c(C)c3)c(=O)[nH]2)o1  viability     88.4%
2  Cc1ccccc1-c1nc(CN2CCC(C(=O)NCc3cccnc3)CC2)c(C)o1  viability     87.1%
3  COc1cc(N2C(=O)CSC23C(=O)Nc2ccccc23)cc(OC)c1OC (stereo not given)  viability     95.7%
4          N#Cc1c(N)nc2c(c1-c1ccncc1)CCCCC2  viability     90.7%
5  CC(=O)N1C(=O)N(C)C2C1N(C(C)=O)C(=O)N2C (stereo not given)  viability     93.5%

viability reported for this compound C[C@@H]1C[C@H]2[C@@H]3CCC4=CC(=O)C=C[C@]4(C)[C@@]3(F)[C@@H](O)C[C@]2(C)[C@@]1(O)C(=O)COP(=O)(O)O : 97.9%

viability reported for this compound CN(C)c1cccc2c(S(=O)(=O)Nc3ccccn3)cccc12 : 101%

viability reported for this compound Cc1cc(N2C(=O)C3C4C=CC(C4)C3C2=O)ccc1Br (stereo not given) : 101%

viability reported for this compound Cc1nc2c3cnn(-c4ccccc4)c3ncn2n1 : 96.7%
